src = PubChem BioAssay AID686979

experiment: qHTS for Inhibitors of human tyrosyl-DNA phosphodiesterase 1 (TDP1): qHTS in cells in presence of CPT; details: chicken DT40 Tdp1-/-;hTDP1 cells + 20 nM CPT, ATP luminescence, 48 h; series mostly up to 46.2 µM; note: nearly all actives have a fitted effect of over 55% in size; note: potency is the fitted concentration of half-maximal effect
Out of some 420,000 compounds screened, about 50,000 (12%) were called active. Not shown: some 26% with an inconclusive outcome. The entries come from a sample that favours actives as a whole.
Readout Name: Potency

These solved cases illustrate the format of a correct answer.
Molecule	Potency
O=C(NNC1=NCCC1)c1cccc(S(=O)(=O)N2CCCCC2)c1	inactive
Cc1nn(CC(=O)NCCc2ccccc2)c(=O)c2cc3occc3n12	inactive
COc1ccc(C(=O)Cc2cnn(-c3ccccc3)c2)c(O)c1	inactive
Cc1cc(NC(=O)CCC2COc3ccccc3O2)no1 (configuration not stated)	inactive
COCCCNC(=O)C1CCN(c2ccc(N3CCOCC3)nn2)CC1	inactive

// query Given the molecule CCc1ccccc1NS(=O)(=O)c1ccc2nc(-c3ccccc3)[nH]c2c1 , what is its reported Potency?
// result 20.6 µM (active)

// query Entry under review: Cc1ccc(NC(=O)CN(C)C(=O)c2ccc(Cl)c(S(=O)(=O)NCc3ccco3)c2)cc1 . Reported Potency?
// result inactive

// query # get_value(readout='Potency', item= O=C(Nc1cccc(F)c1)c1cc(-c2ccco2)nc2ccccc12 )
// result inactive

// query Please give the measured Potency for this molecule: COc1ccc(OC)c(NC(=O)c2ccc3c(c2)C(=O)N(c2ccc(OC(C)=O)cc2)C3=O)c1
// result inactive

// query Query (molecule): COc1ccc(N2CCN(C(=O)CN3C(=O)COc4ccccc43)CC2)cc1 ; field requested: Potency
// result inactive
